In this section, each of the sequences is paired with its reported calcium oscillation score.
system name: Tau
test protocol: rat primary cortical neurons, FLIPR, 25 uM ASO
Bases are written 5' to 3'; sugars and linkages follow in the same order, as letters with counts (s phosphorothioate, o phosphodiester; PS: all linkages phosphorothioate). The collection does not say whether C is 5-methylated. l = locked nucleic acid (LNA); d = 2'-deoxy (DNA)

Use the examples below as a reference point.
- GGTTAAGTGATTAACCAATT (sugars l3 d14 l3, PS): 157 % of control
- GTTAACTCATCAACAC (sugars l4 d9 l3, PS): 59 % of control
- CTTTATTCCCTTAACAATAT (sugars l3 d14 l3, PS): 74.6 % of control
- TTCATCACCAAGTCCCA (sugars l3 d12 l2, PS): 66.8 % of control
- CATCTCTCTAGACATCT (sugars l4 d11 l2, PS): 79.4 % of control

Let us examine a further case.
For TAGTTATACAGTTGGCCCTA (sugars l3 d14 l3, PS) , write its calcium oscillation score. 19.1 % of control

* * *

system name: Tau
test protocol: rat primary cortical neurons, FLIPR, 25 uM ASO
Bases are written 5' to 3'; sugars and linkages follow in the same order, as letters with counts (s phosphorothioate, o phosphodiester; PS: all linkages phosphorothioate). The collection does not say whether C is 5-methylated. l = locked nucleic acid (LNA); d = 2'-deoxy (DNA)
In this section, each of the sequences is paired with its reported calcium oscillation score.

Use the examples below as a reference point.
* TGATAAAACATCCCTA (sugars l4 d8 l4, PS) | 80.5 % of control
* ATAGCAAACAGGATAC (sugars l3 d10 l3, PS) | 27.6 % of control
* CATGTCGATGCTGCC (sugars l3 d9 l3, PS) | 89.5 % of control
* TCACCACTTTAATCTGC (sugars l2 d12 l3, PS) | 45.7 % of control
* CTTTATTTCCAAATTCACTT (sugars l3 d14 l3, PS) | ≥ 200 % of control

For AGGCACAAGTCCTTA (sugars l3 d9 l3, PS) , write its calcium oscillation score. 107 % of control

For CGTCAGCTAGCGTGGC (sugars l3 d10 l3, PS) , write its calcium oscillation score. 117 % of control

For CTTGGGTGGAGTACGGACCA (sugars l3 d14 l3, PS) , write its calcium oscillation score. 0 % of control

For CATCTCTCTAGACATCTC (sugars l2 d13 l3, PS) , write its calcium oscillation score. 64.6 % of control

For CCAGGGACGTGGGTGATATT (sugars l3 d14 l3, PS) , write its calcium oscillation score. 0 % of control

For TAGTCACTCTGGTG (sugars l3 d8 l3, PS) , write its calcium oscillation score. 81.9 % of control

For CTTTTTCCATCTTACTAATA (sugars l3 d14 l3, PS) , write its calcium oscillation score. 46.5 % of control

For AGCGTGATCTTCCATC (sugars l3 d10 l3, PS) , write its calcium oscillation score. 101 % of control

For AGAGGAACGTGTGGAT (sugars l3 d10 l3, PS) , write its calcium oscillation score. 25.9 % of control

* * *

system name: Tau
test protocol: rat primary cortical neurons, FLIPR, 25 uM ASO
Bases are written 5' to 3'; sugars and linkages follow in the same order, as letters with counts (s phosphorothioate, o phosphodiester; PS: all linkages phosphorothioate). The collection does not say whether C is 5-methylated. l = locked nucleic acid (LNA); d = 2'-deoxy (DNA)
In this section, each of the sequences is paired with its reported calcium oscillation score.

Use the examples below as a reference point.
* TTTTTCTCTCTTAACTTTA (sugars l4 d11 l4, PS) | 83.6 % of control
* ATGGATGTTGCCTAATGAGC (sugars l3 d14 l3, PS) | 0 % of control
* CAACTCTTTGAACACCC (sugars l4 d11 l2, PS) | 76.8 % of control
* TTTCCCCATTTATCCTTC (sugars l2 d14 l2, PS) | 49.4 % of control
* CCCAGCGTGATCTTCC (sugars l3 d10 l3, PS) | 4.6 % of control

For TCCCCACCCAAACTCCA (sugars l2 d13 l2, PS) , write its calcium oscillation score. 80.8 % of control

For TTTATTTCCAAATTCACTTT (sugars l2 d16 l2, PS) , write its calcium oscillation score. 141 % of control

For GTCCAAACTTTTACTCT (sugars l4 d11 l2, PS) , write its calcium oscillation score. 75.7 % of control

For TGCACCCACTTTCCTAAT (sugars l4 d12 l2, PS) , write its calcium oscillation score. 56.2 % of control

For CTTTTTTTTTCCACACTCTC (sugars l2 d14 l4, PS) , write its calcium oscillation score. 49 % of control

For CTTTATTTCCAAATTCAC (sugars l4 d10 l1 d1 l2, PS) , write its calcium oscillation score. 5.59 % of control

* * *

system name: Tau
test protocol: rat primary cortical neurons, FLIPR, 25 uM ASO
Bases are written 5' to 3'; sugars and linkages follow in the same order, as letters with counts (s phosphorothioate, o phosphodiester; PS: all linkages phosphorothioate). The collection does not say whether C is 5-methylated. l = locked nucleic acid (LNA); d = 2'-deoxy (DNA)
value kind: calcium oscillation score

Use the examples below as a reference point.
• CTCTTCAAATCATTCAA (sugars l4 d9 l4, PS) = 68.4 % of control
• CCCCAGACCATCAATTT (sugars l2 d13 l2, PS) = 61.7 % of control
• ATACAATAAATACCATATTC (sugars l3 d14 l3, PS) = 81 % of control
• GCAAACCACTCTTATTC (sugars l4 d10 l3, PS) = 86.8 % of control
• CCCGCCTTTAGTGATTACAG (sugars l3 d14 l3, PS) = 2.38 % of control
• CTCTTTCTTAATTCAGA (sugars l4 d10 l3, PS) = 60.1 % of control
• CCCATCTTAATTCATTTAAT (sugars l2 d14 l4, PS) = 90.1 % of control
• CCACTTTACTTTGCAAC (sugars l4 d11 l2, PS) = 55.8 % of control
• TCATGAGCACTAACTCTAAG (sugars l3 d14 l3, PS) = 35.7 % of control
• TAACCAGCTAGTGGTGCCAC (sugars l3 d14 l3, PS) = 18.4 % of control

For TCCAGCCATATTTCAACTCT (sugars l3 d14 l3, PS) , write its calcium oscillation score. 45.2 % of control

For GATATTGTCCAGGGACCCAA (sugars l3 d14 l3, PS) , write its calcium oscillation score. 9.97 % of control

For TACTATCCACTTGTTA (sugars l3 d11 l2, PS) , write its calcium oscillation score. 61.9 % of control

For TGGATGTTGCCTAATGAGCC (sugars l3 d14 l3, PS) , write its calcium oscillation score. 0 % of control

For AATTAAATTTCTCCCTG (sugars l4 d9 l4, PS) , write its calcium oscillation score. 34.1 % of control

For TTATTTCCAAATTCACTTTT (sugars lldllddddddddddlldll, PS) , write its calcium oscillation score. 121 % of control

For ACCTTTTTCCATCTTACT (sugars l4 d12 l2, PS) , write its calcium oscillation score. 68.4 % of control

For CATAAATGACTATACTTATT (sugars l3 d14 l3, PS) , write its calcium oscillation score. 94.7 % of control

For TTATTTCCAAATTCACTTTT (sugars lldldldddddddddlldll, PS) , write its calcium oscillation score. 110 % of control

For ATTAACCGAACTGCGA (sugars l3 d10 l3, PS) , write its calcium oscillation score. 10.9 % of control

For GAAAGAGGGCAGCAGG (sugars l3 d10 l3, PS) , write its calcium oscillation score. 0 % of control

For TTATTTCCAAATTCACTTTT (sugars l2 d16 l2, PS) , write its calcium oscillation score. 182 % of control

For CTTACACACCACACACACTC (sugars l1 d17 l2, PS) , write its calcium oscillation score. 88.5 % of control

For ATTATCATCCATTCTGA (sugars l2 d11 l4, PS) , write its calcium oscillation score. 45.6 % of control

For TAACTCTCCTTATCTGA (sugars l2 d11 l4, PS) , write its calcium oscillation score. 29.7 % of control

For ATTCCCAAATTCCTCATAAT (sugars l4 d14 l2, PS) , write its calcium oscillation score. 58.6 % of control

For GTCAACTGGTTTGT (sugars l3 d8 l3, PS) , write its calcium oscillation score. 89.4 % of control

For CCCACCCATCAATTTGGAAA (sugars l3 d14 l3, PS) , write its calcium oscillation score. 11.7 % of control

For ATCAGCCTTCATCACACT (sugars l4 d12 l2, PS) , write its calcium oscillation score. 87.7 % of control

For CAATTCTCAGCACACCA (sugars l4 d11 l2, PS) , write its calcium oscillation score. 22.5 % of control

For GAAAACCATCAACCAC (sugars l4 d8 l4, PS) , write its calcium oscillation score. 44.3 % of control

For TCACTCATGCCTTAATC (sugars l4 d11 l2, PS) , write its calcium oscillation score. 62 % of control

For CTTTATTTCCAAATTCACT (sugars l5 d9 l1 d1 l3, PS) , write its calcium oscillation score. 110 % of control

For TTTCAACTCTTAGCATCC (sugars l2 d12 l4, PS) , write its calcium oscillation score. 52.5 % of control

For CTACATTTTTGTCTCAT (sugars l4 d10 l3, PS) , write its calcium oscillation score. 65.4 % of control
